# System: LG0567-F671-PDC complex spheroids viability
# measurement_notes: Anticancer human tumor LG0567-F671-PDC patient-derived lung adenocarcinoma cell line growth inhibition [RAS]
# experimental_setup: second compound 1 µM; first compound 0.1 µM; stronger effect = lower value
reported_property: viability, T/C (%)
// note: answer is a bare numeric in %

INSERT INTO assay_data (molecule, reported_property, assay_result) VALUES
  ('NC1c2ccccc2OC12CCN(c1cnc3c(N4CCCc5ncccc54)n[nH]c3n1)CC2 (stereo not given) + C#Cc1c(F)ccc2cc(O)cc(-c3ncc4c(N5CC6CCC(C5)N6)nc(OCC56CCCN5CC(F)C6)nc4c3F)c12', 'viability, T/C', 6.71),
  ('CC1(O)CCCC1n1c(=O)c(C(F)F)cc2cnc(NC3CCN(S(C)(=O)=O)CC3)nc21 (stereo not given) + C=CC(=O)N1CCN(c2nc(OCC3CCCN3C)nc3c(F)c(-c4nc(N)cc(C)c4C(F)(F)F)c(Cl)cc23)C(C)C1', 'viability, T/C', 15.3);

*Q* Suppose we examine the molecule Nc1ccn(C2OC(CO)C(O)C2(F)F)c(=O)n1 (stereo not given) + C=CC(=O)N1CCN(c2nc(OCC3CCCN3C)nc3c(F)c(-c4nc(N)cc(C)c4C(F)(F)F)c(Cl)cc23)C(C)C1 ; what viability, T/C value has been reported?
*A* 13.7

*Q* Query Nc1ccn(C2OC(CO)C(O)C2(F)F)c(=O)n1 (stereo not given) + C#Cc1c(F)ccc2cc(O)cc(-c3ncc4c(N5CC6CCC(C5)N6)nc(OCC56CCCN5CC(F)C6)nc4c3F)c12 next
*A* 26.9

----------
# Test system: LG0567-F671-PDC complex spheroids viability
# measurement_notes: Anticancer human tumor LG0567-F671-PDC cell line growth inhibition [RAS];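 note: spheroids exposed to compound for seven days before readout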
# experimental_setup: second compound 0.3 µM; first compound 0.316 µM; stronger effect = lower value
Item-by-item account of viability, T/C
Use % as the unit, but write only the number.

INSERT INTO results (molecule, assay_result) VALUES
  ('Nc1ccn(C2OC(CO)C(O)C2(F)F)c(=O)n1 (configuration not stated) + CCn1c(-c2cccnc2C(C)OC)c2c3cc(ccc31)N1CCOC(CC(NC(=O)C(C(C)C)N(C)C(=O)C3(F)CCN(C(=O)C#CC(C)(C)N(C)C)CC3)C(=O)N3CCCC(N3)C(=O)OCC(C)(C)C2)C1', 9.59);

Next, consider the following molecule.
*Q* viability, T/C lookup needed for CC(=O)OC12COC1CC(O)C1(C)C(=O)C(O)C3=C(C)C(OC(=O)C(O)C(NC(=O)OC(C)(C)C)c4ccccc4)CC(O)(C(OC(=O)c4ccccc4)C21)C3(C)C (configuration not stated) + CCn1c(-c2cc(N3CCN(C)CC3)cnc2C(C)OC)c2c3cc(ccc31)-c1csc(n1)CC(NC(=O)C1CC1C)C(=O)N1CCCC(N1)C(=O)OCC(C)(C)C2 , thanks.
*A* 1.85

----------
# Test system: LG0567-F671-PDC complex spheroids viability
# measurement_notes: Anticancer human tumor LG0567-F671-PDC cell line growth inhibition [RAS];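 note: spheroids exposed to compound for seven days before readout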;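 for pIC50: luminescence signal used as a proxy for viable cells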
# experimental_setup: curve of first compound; second compound 0.3 µM
pIC50: −log10 of the molar value.
reported_property: pIC50

INSERT INTO results (compound, assay_result) VALUES
  ('CC(C)n1nc(-c2ccc3oc(N)nc3c2)c2c(N)ncnc21 + CCn1c(-c2cc(N3CCN(C)CC3)cnc2C(C)OC)c2c3cc(ccc31)-c1csc(n1)CC(NC(=O)C1CC1C)C(=O)N1CCCC(N1)C(=O)OCC(C)(C)C2', '> 9.50');

Now examine the next entry.
*Q* Endpoint output: pIC50 of O=C(c1ccc(F)c(F)c1Nc1ccc(I)cc1F)N1CC(O)([C@@H]2CCCCN2)C1 + CCn1c(-c2cc(N3CCN(C)CC3)cnc2C(C)OC)c2c3cc(ccc31)-c1csc(n1)CC(NC(=O)C1CC1C)C(=O)N1CCCC(N1)C(=O)OCC(C)(C)C2 . Value?
*A* > 8.50

----------
# System: LG0567-F671-PDC complex spheroids viability
# measurement_notes: Anticancer human tumor LG0567-F671-PDC cell line growth inhibition [RAS];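 note: spheroids exposed to compound for seven days before readout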
# experimental_setup: second compound 0.3 µM; first compound 0.03 µM; stronger effect = lower value
viability, T/C overview
Numbers only here, please. The scale is %.

The cases that follow already have their viability, T/C on record.
INSERT INTO assay_data (compound, reported_property, unit_spec, assay_result) VALUES
  ('CC1(C)CCC(Nc2ncc(C(F)(F)F)c(-c3c[nH]c4c(P(C)(C)=O)c(C#N)ccc34)n2)CN1 (centres undefined) + CCn1c(-c2cc(N3CCN(C)CC3)cnc2C(C)OC)c2c3cc(ccc31)-c1csc(n1)CC(NC(=O)C1CC1C)C(=O)N1CCCC(N1)C(=O)OCC(C)(C)C2', 'viability, T/C', '%', 3.64),
  ('CC1(C)CCC(Nc2ncc(C(F)(F)F)c(-c3c[nH]c4c(P(C)(C)=O)c(C#N)ccc34)n2)CN1 (centres undefined) + CCn1c(-c2cccnc2C(C)OC)c2c3cc(ccc31)N1CCOC(CC(NC(=O)C(C(C)C)N(C)C(=O)C3(F)CCN(C(=O)C#CC(C)(C)N(C)C)CC3)C(=O)N3CCCC(N3)C(=O)OCC(C)(C)C2)C1', 'viability, T/C', '%', 8.99);

*Q* // lookup viability, T/C for CCc1c2c(nc3ccc(O)cc13)-c1cc3c(c(=O)n1C2)COC(=O)[C@]3(O)CC + CCn1c(-c2cccnc2C(C)OC)c2c3cc(ccc31)N1CCOC(CC(NC(=O)C(C(C)C)N(C)C(=O)C3(F)CCN(C(=O)C#CC(C)(C)N(C)C)CC3)C(=O)N3CCCC(N3)C(=O)OCC(C)(C)C2)C1
*A* 5.32

*Q* Also CCc1c2c(nc3ccc(O)cc13)-c1cc3c(c(=O)n1C2)COC(=O)[C@]3(O)CC + CCn1c(-c2cc(N3CCN(C)CC3)cnc2C(C)OC)c2c3cc(ccc31)-c1csc(n1)CC(NC(=O)C1CC1C)C(=O)N1CCCC(N1)C(=O)OCC(C)(C)C2 , if possible.
*A* 1.76

----------
# System: LG0567-F671-PDC complex spheroids viability
# measurement_notes: Anticancer human tumor LG0567-F671-PDC cell line growth inhibition [RAS]; active = viability on the fitted dose curve at most 10% of control; inactive = the rest;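 note: spheroids exposed to compound for seven days before readout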
# experimental_setup: second compound 0.316 µM; first compound 10 µM
Valid outcomes are listed here; reply with one: 1 for active, -1 for inactive

Observe how each entry below is paired with its result.
INSERT INTO results (compound, class_assignment) VALUES
  ('Cc1nc(N2CCC3(CC2)COC(C)C3N)c(CO)nc1Sc1ccnc(N)c1Cl (centres undefined) + C=CC(=O)N1CCN(c2nc(OCC3CCCN3C)nc3c(F)c(-c4nc(N)cc(C)c4C(F)(F)F)c(Cl)cc23)C(C)C1', 1),
  ('CC1(O)CCCC1n1c(=O)c(C(F)F)cc2cnc(NC3CCN(S(C)(=O)=O)CC3)nc21 (centres undefined) + C=CC(=O)N1CCN(c2nc(OCC3CCCN3C)nc3c(F)c(-c4nc(N)cc(C)c4C(F)(F)F)c(Cl)cc23)C(C)C1', -1),
  ('CCC(CC)c1cc(NC2CCC(N)C2)n2nccc2n1 (centres undefined) + C=CC(=O)N1CCN(c2nc(OCC3CCCN3C)nc3c(F)c(-c4nc(N)cc(C)c4C(F)(F)F)c(Cl)cc23)C(C)C1', 1);

*Q* Per the assay record, what outcome was assigned to CC(Nc1ccc2c(c1)OCCn1cc(N3C(=O)OCC3C(F)F)nc1-2)C(N)=O (centres undefined) + C=CC(=O)N1CCN(c2nc(OCC3CCCN3C)nc3c(F)c(-c4nc(N)cc(C)c4C(F)(F)F)c(Cl)cc23)C(C)C1 ?
*A* 1

----------
# Tested on: LG0567-F671-PDC complex spheroids viability
# measurement_notes: Anticancer human tumor LG0567-F671-PDC cell line growth inhibition [RAS]; active means viability on the fitted dose curve at most 10% of control; inactive means the rest;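 note: spheroids exposed to compound for seven days before readout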
# experimental_setup: second compound 0.003 µM; first compound 1 µM
Can you answer with just one of these options? YES = active, NO = inactive

Worked set:
INSERT INTO results (molecule, assay_system, class_assignment) VALUES
  ('NC1c2ccccc2OC12CCN(c1cnc3c(N4CCCc5ncccc54)n[nH]c3n1)CC2 (centres undefined) + CCn1c(-c2cc(N3CCN(C)CC3)cnc2C(C)OC)c2c3cc(ccc31)-c1csc(n1)CC(NC(=O)C1CC1C)C(=O)N1CCCC(N1)C(=O)OCC(C)(C)C2', 'LG0567-F671-PDC complex spheroids viability', 'YES'),
  ('CC(Nc1ccc2c(c1)OCCn1cc(N3C(=O)OCC3C(F)F)nc1-2)C(N)=O (centres undefined) + CCn1c(-c2cc(N3CCN(C)CC3)cnc2C(C)OC)c2c3cc(ccc31)-c1csc(n1)CC(NC(=O)C1CC1C)C(=O)N1CCCC(N1)C(=O)OCC(C)(C)C2', 'LG0567-F671-PDC complex spheroids viability', 'YES'),
  ('C=CC(=O)Nc1cc(Nc2nccc(-c3cn(C)c4ccccc34)n2)c(OC)cc1N(C)CCN(C)C + CCn1c(-c2cc(N3CCN(C)CC3)cnc2C(C)OC)c2c3cc(ccc31)-c1csc(n1)CC(NC(=O)C1CC1C)C(=O)N1CCCC(N1)C(=O)OCC(C)(C)C2', 'LG0567-F671-PDC complex spheroids viability', 'YES');

From here, focus on the item given below.
*Q* // return assay outcome for C[C@@H](NC(=O)c1ncnc(N)c1Cl)c1ncc(C(=O)Nc2cc(C(F)(F)F)c(Cl)cn2)s1 + CCn1c(-c2cc(N3CCN(C)CC3)cnc2C(C)OC)c2c3cc(ccc31)-c1csc(n1)CC(NC(=O)C1CC1C)C(=O)N1CCCC(N1)C(=O)OCC(C)(C)C2
*A* NO
